TARGET_OR_TEST_SYSTEM: pre-existing anti-VH ADA in human serum
PROTOCOL_DESCRIPTION: ADA confirmation assay (MSD): 10 ug/mL test material against labelled DOM1H-131-206, mean of 10 sera
Outcome label depends on Mean % inhibition of signal in confirmation assay relative to 30%: at/above gives condition met, below gives condition not met.

[[record]]
binder = "DOM1H-131-206 C-terminal ASTKGP (other, VH dAb variant) VH: EVQLLESGGGLVQPGGSLRLSCAASGFTFAHETMVWVRQAPGKGLEWVSHIPPDGQDPFYADSVKGRFTISRDNSKNTLYLQMNSLRAEDTAVYHCALLPKRGPWFDYWGQGTLVTVSSASTKGP"
assigned_class = "condition met"

[[record]]
binder = "DOM1H-131-206 C-terminal ASTKG (protein) VH: EVQLLESGGGLVQPGGSLRLSCAASGFTFAHETMVWVRQAPGKGLEWVSHIPPDGQDPFYADSVKGRFTISRDNSKNTLYLQMNSLRAEDTAVYHCALLPKRGPWFDYWGQGTLVTVSSASTKG"
assigned_class = "condition not met"

[[record]]
binder = "DOM1H-131-206 C-terminal AST (protein) VH: EVQLLESGGGLVQPGGSLRLSCAASGFTFAHETMVWVRQAPGKGLEWVSHIPPDGQDPFYADSVKGRFTISRDNSKNTLYLQMNSLRAEDTAVYHCALLPKRGPWFDYWGQGTLVTVSSAST"
assigned_class = "condition not met"

[[record]]
binder = "DOM1H-131-206 Q13A (protein, name in Kabat numbering) VH: EVQLLESGGGLVAPGGSLRLSCAASGFTFAHETMVWVRQAPGKGLEWVSHIPPDGQDPFYADSVKGRFTISRDNSKNTLYLQMNSLRAEDTAVYHCALLPKRGPWFDYWGQGTLVTVSS"
assigned_class = "condition met"

[[record]]
binder = "DOM1H-131-206 H91S (other, name in Kabat numbering, VH dAb variant) VH: EVQLLESGGGLVQPGGSLRLSCAASGFTFAHETMVWVRQAPGKGLEWVSHIPPDGQDPFYADSVKGRFTISRDNSKNTLYLQMNSLRAEDTAVYSCALLPKRGPWFDYWGQGTLVTVSS"
assigned_class = "condition met"

[[record]]
binder = "DT04-H-033 C-terminal A (protein) VH: EVQLLESGGGLVQPGGSLRLSCAASGFTFADYGMAWVRQAPGKGLEWVSTISYNGLYTYYADSVKGRTISRDNSKNTLYLQMNSLRAEDTAVYYCAKYEYSPESDFDYWGQGTLVTVSSA"
assigned_class = "condition not met"

[[record]]
binder = "DOM1H-131-206 C-terminal ASTK (protein) VH: EVQLLESGGGLVQPGGSLRLSCAASGFTFAHETMVWVRQAPGKGLEWVSHIPPDGQDPFYADSVKGRFTISRDNSKNTLYLQMNSLRAEDTAVYHCALLPKRGPWFDYWGQGTLVTVSSASTK"
assigned_class = "condition not met"

[[record]]
binder = "DOM1H-131-206 P14A, G44E (other, name in Kabat numbering, VH dAb variant) VH: EVQLLESGGGLVQAGGSLRLSCAASGFTFAHETMVWVRQAPGKELEWVSHIPPDGQDPFYADSVKGRFTISRDNSKNTLYLQMNSLRAEDTAVYHCALLPKRGPWFDYWGQGTLVTVSS"
assigned_class = "condition met"

[[record]]
binder = "DOM1H-131-206 K43A (other, name in Kabat numbering, VH dAb variant) VH: EVQLLESGGGLVQPGGSLRLSCAASGFTFAHETMVWVRQAPGAGLEWVSHIPPDGQDPFYADSVKGRFTISRDNSKNTLYLQMNSLRAEDTAVYHCALLPKRGPWFDYWGQGTLVTVSS"
assigned_class = "condition met"

[[record]]
binder = "DOM1H-131-206 P14A (protein) VH: EVQLLESGGGLVQAGGSLRLSCAASGFTFAHETMVWVRQAPGKGLEWVSHIPPDGQDPFYADSVKGRFTISRDNSKNTLYLQMNSLRAEDTAVYHCALLPKRGPWFDYWGQGTLVTVSS"
assigned_class = "condition met"

[[record]]
binder = "DOM1H-131-206 with a C-terminal alanine extension (other, VH dAb variant) VH: EVQLLESGGGLVQPGGSLRLSCAASGFTFAHETMVWVRQAPGKGLEWVSHIPPDGQDPFYADSVKGRFTISRDNSKNTLYLQMNSLRAEDTAVYHCALLPKRGPWFDYWGQGTLVTVSSA"
assigned_class = "condition not met"

[[record]]
binder = "DT04-H-033 C-terminal AAA (protein) VH: EVQLLESGGGLVQPGGSLRLSCAASGFTFADYGMAWVRQAPGKGLEWVSTISYNGLYTYYADSVKGRTISRDNSKNTLYLQMNSLRAEDTAVYYCAKYEYSPESDFDYWGQGTLVTVSSAAA"
assigned_class = "condition not met"

[[record]]
binder = "DOM1H-131-206 C-terminal AS (protein) VH: EVQLLESGGGLVQPGGSLRLSCAASGFTFAHETMVWVRQAPGKGLEWVSHIPPDGQDPFYADSVKGRFTISRDNSKNTLYLQMNSLRAEDTAVYHCALLPKRGPWFDYWGQGTLVTVSSAS"
assigned_class = "condition not met"

[[record]]
binder = "DT04-H-033 C-terminal AS (protein) VH: EVQLLESGGGLVQPGGSLRLSCAASGFTFADYGMAWVRQAPGKGLEWVSTISYNGLYTYYADSVKGRTISRDNSKNTLYLQMNSLRAEDTAVYYCAKYEYSPESDFDYWGQGTLVTVSSAS"
assigned_class = "condition not met"

